The origin of these recorded values is patent US12077503B2.

Can you tell me pest or weed control at 125 g/ha for the items I'm about to list?
system: ryegrass, Italian (Italian ryegrass, Lolium multiflorum); assay: Test A preemergence; assay type: in vivo; conditions: Lolium multiflorum, pre-emergence, 240 h, 125 g ai/ha, preemergence; visual rating after approx. 10 d; 0 to 100 scale where 0 is no effect and 100 is complete control; read-out: Plant response rating, Ryegrass, Italian
Field: numeric (%). Do not append units.

pest or weed control at 125 g/ha for CN1CC[C@H](c2ccc3c(c2)OC(F)(F)O3)[C@@H](C(=O)Nc2cccc(F)c2F)C1=O ?
20

pest or weed control at 125 g/ha for COc1ccc([C@H]2CNC(=O)[C@@H]2C(=O)Nc2ccccc2S(C)(=O)=O)cc1F ?
0

pest or weed control at 125 g/ha for CN1C[C@H](c2ccc(OC(F)F)cc2)[C@@H](C(=O)Nc2ccccc2S(C)(=O)=O)C1=O ?
0

pest or weed control at 125 g/ha for Cc1cc(F)cc([C@H]2CN(C)C(=O)[C@@H]2C(=O)Nc2cccc(F)c2C#N)c1 ?
40

pest or weed control at 125 g/ha for CCc1cc(CC)cc([C@H]2CN(C)C(=O)[C@@H]2C(=O)Nc2cccc(F)c2F)c1 ?
90

pest or weed control at 125 g/ha for CN1C[C@H](c2ccc(F)c(OC(F)(F)C(F)F)c2)[C@@H](C(=O)Nc2ccccc2F)C1=O ?
60

pest or weed control at 125 g/ha for O=C1NC[C@H](c2ccc(C3CC3)cc2)[C@H]1C(=O)Nc1ccccc1F ?
0

pest or weed control at 125 g/ha for O=C1NC[C@H](c2csc3ccccc23)[C@H]1C(=O)Nc1ccccc1F ?
0
